EXPERIMENT_SUMMARY: Biodistribution of radiopharmaceuticals in RAP-deficient mice and control strain C57BL/6J, organs, urine and faeces counted for radioactivity
Type: in vivo
TEST_CONTEXT: B6.129S7-Lrpap1^tmlHer (RAP-deficient), mouse, urine, total radioactivity; RAP−/− (RAP-deficient) mice, single intravenous injection 1-2 μCi/animal, 24 hours post injection, n = 3; read-out: Urine (% ID)
Square brackets hold non-standard residues; d marks the D form. Peptide text beside a SMILES is read from it. * marks the point of attachment. X1 = NCCCC[C@H](NC(=O)[C@H](CS)NC(=O)[C@H](CCCCN)NC(=O)[C@@H](N)CNC(=O)C*)C(N)=O; NMeF = CN[C@@H](Cc1ccccc1)C(=O)O; hCys = N[C@@H](CCS)C(=O)O
MEASURE: dose excreted at 24 h (%)

[[record]]
compound = "CC(C)[C@@H]1NC(=O)[C@H](CCCCN)NC(=O)[C@@H](Cc2c[nH]c3ccccc23)NC(=O)[C@H](Cc2ccc(O)cc2)NC(=O)[C@H](Cc2ccccc2)N(C)C(=O)[C@H](CCSCC(=O)NC[C@H](N)C(=O)N[C@@H](CCCCN)C(=O)N[C@@H](CS)C(=O)N[C@@H](CCCCN)C(N)=O)NC1=O [Tc-99m-NeoTect ®, metal not drawn] (cyclo([hCys](X1)[NMeF]Y[dW]KV))"
measure = "dose excreted at 24 h"
unit_abbreviation = "%"
observed_value = 40.4


---

EXPERIMENT_SUMMARY: Biodistribution of radiopharmaceuticals in RAP-deficient mice and control strain C57BL/6J, organs, urine and faeces counted for radioactivity
Type: in vivo
TEST_CONTEXT: B6.129S7-Lrpap1^tmlHer (RAP-deficient), mouse, kidneys, total radioactivity; RAP−/− (RAP-deficient) mice, single intravenous injection 1-2 μCi/animal, 24 hours post injection, n = 3
Protocol: In order to investigate, whether megalin and cubilin play a role in the renal uptake of radiopharmaceuticals into cells of the proximal tubule, in-vivo experiments with RAP-deficient mice (Jax®Mice, strain B6.129S7-Lrpap1^tmlHer) were carried out. […] After 24 hours post injection the animals were killed and the organs as well as the collected urine and faeces counted for radioactivity. […]
Square brackets hold non-standard residues; d marks the D form. Peptide text beside a SMILES is read from it. * marks the point of attachment. X1 = NCCCC[C@H](NC(=O)[C@H](CS)NC(=O)[C@H](CCCCN)NC(=O)[C@@H](N)CNC(=O)C*)C(N)=O; NMeF = CN[C@@H](Cc1ccccc1)C(=O)O; hCys = N[C@@H](CCS)C(=O)O
MEASURE: tissue uptake at 24 h (%ID/g)

[[record]]
molecule = "CC(C)[C@@H]1NC(=O)[C@H](CCCCN)NC(=O)[C@@H](Cc2c[nH]c3ccccc23)NC(=O)[C@H](Cc2ccc(O)cc2)NC(=O)[C@H](Cc2ccccc2)N(C)C(=O)[C@H](CCSCC(=O)NC[C@H](N)C(=O)N[C@@H](CCCCN)C(=O)N[C@@H](CS)C(=O)N[C@@H](CCCCN)C(N)=O)NC1=O [Tc-99m-NeoTect ®, metal not drawn] (cyclo([hCys](X1)[NMeF]Y[dW]KV))"
measure = "tissue uptake at 24 h"
unit_abbreviation = "%ID/g"
observed_value = 99.3

